Give measured inhibition for each item. Keep answers brief.
# system under test: Serine/threonine-protein kinase Sgk2 (Homo sapiens) (UniProt Q9HBY8)
# Sequence (whole entry): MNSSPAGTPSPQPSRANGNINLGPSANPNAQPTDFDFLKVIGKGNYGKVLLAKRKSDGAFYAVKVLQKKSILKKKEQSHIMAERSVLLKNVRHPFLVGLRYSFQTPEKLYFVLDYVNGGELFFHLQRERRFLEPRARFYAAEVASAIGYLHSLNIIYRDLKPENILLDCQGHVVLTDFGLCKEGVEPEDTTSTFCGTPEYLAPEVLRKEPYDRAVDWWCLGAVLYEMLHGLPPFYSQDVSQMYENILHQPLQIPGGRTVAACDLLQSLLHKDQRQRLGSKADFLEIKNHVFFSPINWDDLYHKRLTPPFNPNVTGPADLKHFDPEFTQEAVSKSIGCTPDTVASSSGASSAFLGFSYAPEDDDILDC
# condition set: at 1 µM
# Description: GSK_PKIS: SGK2 mean inhibition at 1 uM [Nanosyn]
Give a bare numeral; the unit % is implied.

Task: // fetch inhibition given entry `CCn1c(-c2nonc2N)nc2ccncc21`
Output: -2.06

Task: // fetch inhibition given entry `COc1cc2ncn(-c3cc(O[C@H](C)c4ccccc4Cl)c(C(N)=O)s3)c2cc1OC`
Output: 5.65

Task: // fetch inhibition given entry `[O-][S+]1CCN(Cc2ccc(-c3ccc4ncnc(Nc5ccc(OCc6ccccc6)c(F)c5)c4c3)o2)CC1`
Output: -1.29

Task: // fetch inhibition given entry `Cc1cc(O)cc(C)c1/C=C/c1cncc(-c2nn[nH]n2)c1`
Output: 1.25

Task: // fetch inhibition given entry `Nc1nc(-c2ccccn2)c(-c2ccc3ncccc3n2)s1`
Output: 1.55

----------
Give measured inhibition for each item. Keep answers brief.
# system under test: MAP kinase-interacting serine/threonine-protein kinase 1 (Homo sapiens)
# condition set: at 0.1 µM
# Description: GSK_PKIS: MKNK1 mean inhibition at 0.1 uM [Nanosyn]
Give a bare numeral; the unit % is implied.

Task: // fetch inhibition given entry `COc1cc2ncn(-c3cc(OCc4ccccc4C(F)(F)F)c(C(N)=O)s3)c2cc1OC`
Output: 2.99

Task: // fetch inhibition given entry `CCn1c(-c2nonc2N)nc2cncc(C(=O)N3CC[C@H](N)C3)c21`
Output: 3.74

Task: // fetch inhibition given entry `CCn1c(-c2nonc2N)nc2c(C#CC(C)(C)O)nc(CN3CCCC3)cc21`
Output: -0.28

Task: // fetch inhibition given entry `COc1ccc(-c2ccncc2)cc1C(N)=O`
Output: 2.15

----------
# system under test: Dual specificity protein kinase TTK (Homo sapiens) (UniProt P33981)
# Sequence (P33981 whole entry): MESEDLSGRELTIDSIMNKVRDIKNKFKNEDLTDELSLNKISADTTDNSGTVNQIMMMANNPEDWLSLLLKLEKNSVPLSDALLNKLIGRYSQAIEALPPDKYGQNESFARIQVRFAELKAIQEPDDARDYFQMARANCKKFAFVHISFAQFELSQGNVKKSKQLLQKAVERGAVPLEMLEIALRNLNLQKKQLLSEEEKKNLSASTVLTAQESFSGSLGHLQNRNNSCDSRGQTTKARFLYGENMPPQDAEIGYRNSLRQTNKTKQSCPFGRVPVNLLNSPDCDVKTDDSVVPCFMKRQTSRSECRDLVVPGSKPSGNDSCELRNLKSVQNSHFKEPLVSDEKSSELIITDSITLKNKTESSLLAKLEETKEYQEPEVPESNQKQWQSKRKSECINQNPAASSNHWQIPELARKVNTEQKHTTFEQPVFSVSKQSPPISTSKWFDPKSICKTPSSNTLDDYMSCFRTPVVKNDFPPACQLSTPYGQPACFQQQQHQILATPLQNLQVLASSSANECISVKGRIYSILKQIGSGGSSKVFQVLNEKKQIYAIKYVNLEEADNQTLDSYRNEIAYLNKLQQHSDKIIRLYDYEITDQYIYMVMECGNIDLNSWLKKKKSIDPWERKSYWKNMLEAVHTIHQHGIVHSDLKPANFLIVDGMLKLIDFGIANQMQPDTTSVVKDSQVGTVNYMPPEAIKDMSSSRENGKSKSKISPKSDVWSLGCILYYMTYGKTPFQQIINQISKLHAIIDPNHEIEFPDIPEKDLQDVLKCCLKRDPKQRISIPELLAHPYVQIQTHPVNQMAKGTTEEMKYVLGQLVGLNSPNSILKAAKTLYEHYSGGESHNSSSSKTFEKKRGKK
# condition set: at 1 µM
measured metric: inhibition (%)
Give a bare numeral; the unit % is implied.

Task: Recall the reported inhibition of `CCCN1CCC(Oc2cc(Nc3nc(Nc4cccc(F)c4C(N)=O)c4cc[nH]c4n3)c(OC)cc2Cl)CC1` when tested on Dual specificity protein kinase TTK (Homo sapiens) (UniProt P33981).
Output: 33.7

Task: Recall the reported inhibition of `Nc1nc(-c2ccc3c(c2)C(=Cc2cc(Br)c(O)c(Br)c2)C(=O)N3)cs1` when tested on Dual specificity protein kinase TTK (Homo sapiens) (UniProt P33981).
Output: -0.27

Task: Recall the reported inhibition of `CS(=O)(=O)CCNCc1nc(-c2ccc3ncnc(Nc4ccc(F)c(Cl)c4)c3c2)cs1` when tested on Dual specificity protein kinase TTK (Homo sapiens) (UniProt P33981).
Output: 6.34

Task: Recall the reported inhibition of CC1=C(C(=O)Nc2ccc3[nH]ncc3c2)C(c2ccc3ccccc3c2)CC(=O)N1 (centres undefined) when tested on Dual specificity protein kinase TTK (Homo sapiens) (UniProt P33981).
Output: -0.04

Task: Recall the reported inhibition of `COc1cc2ncn(-c3cc(O[C@H](C)c4ccccc4Cl)c(C(N)=O)s3)c2cc1OC` when tested on Dual specificity protein kinase TTK (Homo sapiens) (UniProt P33981).
Output: 13.2

Task: Recall the reported inhibition of `COc1ccc(-c2coc3ncnc(N)c23)cc1` when tested on Dual specificity protein kinase TTK (Homo sapiens) (UniProt P33981).
Output: 11.5

Task: Recall the reported inhibition of `COc1ccc(-c2ccncc2)cc1C(N)=O` when tested on Dual specificity protein kinase TTK (Homo sapiens) (UniProt P33981).
Output: 8.41

Task: Recall the reported inhibition of `COc1cc2ncn(-c3cc(O[C@@H](C)c4ccccc4Cl)c(C(N)=O)s3)c2cc1OC` when tested on Dual specificity protein kinase TTK (Homo sapiens) (UniProt P33981).
Output: 9.98

Task: Recall the reported inhibition of `Cc1cc(O)cc(C)c1/C=C/c1cncc(-c2nn[nH]n2)c1` when tested on Dual specificity protein kinase TTK (Homo sapiens) (UniProt P33981).
Output: 11.1

Task: Recall the reported inhibition of CC1=C(C(=O)Nc2ccc3[nH]ncc3c2)C(c2ccc(F)cc2)NC(=O)N1 (centres undefined) when tested on Dual specificity protein kinase TTK (Homo sapiens) (UniProt P33981).
Output: 1.11

Task: Recall the reported inhibition of `Cc1nn(C)c2cc(N(C)c3ccnc(Nc4cccc(S(N)(=O)=O)c4)n3)ccc12` when tested on Dual specificity protein kinase TTK (Homo sapiens) (UniProt P33981).
Output: 26.4

Task: Recall the reported inhibition of `CS(=O)(=O)Nc1ccc(N/C=C2\C(=O)Nc3ccccc32)cc1` when tested on Dual specificity protein kinase TTK (Homo sapiens) (UniProt P33981).
Output: 18.9

Task: Recall the reported inhibition of `COc1ccc(-c2nn3ncccc3c2-c2ccnc(Nc3ccc(Cl)c(C(F)(F)F)c3)n2)cc1` when tested on Dual specificity protein kinase TTK (Homo sapiens) (UniProt P33981).
Output: 5

Task: Recall the reported inhibition of `COc1cc2ncn(-c3cc(OCc4ccccc4C(F)(F)F)c(C(N)=O)s3)c2cc1OC` when tested on Dual specificity protein kinase TTK (Homo sapiens) (UniProt P33981).
Output: 10.1

Task: Recall the reported inhibition of `Fc1cccc(COc2ccc(Nc3ncnc4cc(-c5ccc[nH]5)sc34)cc2Cl)c1` when tested on Dual specificity protein kinase TTK (Homo sapiens) (UniProt P33981).
Output: 10.7

Task: Recall the reported inhibition of `CCn1c(-c2nonc2N)nc2c(C#CC(C)(C)O)nc(CN3CCCC3)cc21` when tested on Dual specificity protein kinase TTK (Homo sapiens) (UniProt P33981).
Output: 5.1

Task: Recall the reported inhibition of `O=C1NC(=O)C(c2ccc(Cl)cc2)=C1Nc1ccc(Cl)c(C(=O)O)c1` when tested on Dual specificity protein kinase TTK (Homo sapiens) (UniProt P33981).
Output: -3.54

Task: Recall the reported inhibition of `N#Cc1c(NC(=O)c2cccc3ccccc23)sc2c1CCCC2` when tested on Dual specificity protein kinase TTK (Homo sapiens) (UniProt P33981).
Output: 0.69

Task: Recall the reported inhibition of `CCn1c(-c2nonc2N)nc2cncc(C(=O)N3CCNCC3)c21` when tested on Dual specificity protein kinase TTK (Homo sapiens) (UniProt P33981).
Output: 12.5

Task: Recall the reported inhibition of `Cc1cccc(-c2n[nH]cc2-c2ccc3ncccc3n2)n1` when tested on Dual specificity protein kinase TTK (Homo sapiens) (UniProt P33981).
Output: 3.31

Task: Recall the reported inhibition of `CN1CCC(C(=O)Nc2n[nH]c3nnc(-c4ccccc4)cc23)CC1` when tested on Dual specificity protein kinase TTK (Homo sapiens) (UniProt P33981).
Output: 15

Task: Recall the reported inhibition of `c1cnn2ncc(-c3ccnc(Nc4ccc5c(c4)OCCO5)n3)c2c1` when tested on Dual specificity protein kinase TTK (Homo sapiens) (UniProt P33981).
Output: 35

Task: Recall the reported inhibition of `Cc1nnc(-c2ccc(C)c(-c3ccc(C(=O)Nc4cccc(C#N)c4)cc3)c2)o1` when tested on Dual specificity protein kinase TTK (Homo sapiens) (UniProt P33981).
Output: 6.46

Task: Recall the reported inhibition of `Fc1cccc(COc2ccc(Nc3ncnc4sc(-c5cccs5)cc34)cc2Cl)c1` when tested on Dual specificity protein kinase TTK (Homo sapiens) (UniProt P33981).
Output: 2.5

Task: Recall the reported inhibition of `CS(=O)(=O)CCNCc1ccc(-c2ccc3ncnc(Nc4ccc(OCc5cccc(F)c5)c(C(F)(F)F)c4)c3c2)o1` when tested on Dual specificity protein kinase TTK (Homo sapiens) (UniProt P33981).
Output: 7.39

Task: Recall the reported inhibition of `CN(C)c1cc2c(Nc3ccc4nc(Cc5ccccc5)[nH]c4c3)ncnc2cn1` when tested on Dual specificity protein kinase TTK (Homo sapiens) (UniProt P33981).
Output: 32.2

Task: Recall the reported inhibition of `O=C(Nc1n[nH]c2nc(-c3ccco3)c(Br)cc12)C1CC1` when tested on Dual specificity protein kinase TTK (Homo sapiens) (UniProt P33981).
Output: -3.66

Task: Recall the reported inhibition of `CS(=O)(=O)CCN(CC#N)Cc1ccc(-c2ccc3ncnc(Nc4ccc(OCc5cccc(F)c5)c(Cl)c4)c3c2)o1` when tested on Dual specificity protein kinase TTK (Homo sapiens) (UniProt P33981).
Output: 5.67

Task: Recall the reported inhibition of `CCCN1CCC=C(c2ccc(Nc3nc(Nc4ccccc4C(N)=O)c4cc[nH]c4n3)c(C)c2)C1` when tested on Dual specificity protein kinase TTK (Homo sapiens) (UniProt P33981).
Output: 70.7

Task: Recall the reported inhibition of `[O-][S+]1CCN(Cc2ccc(-c3ccc4ncnc(Nc5ccc(OCc6ccccc6)c(F)c5)c4c3)o2)CC1` when tested on Dual specificity protein kinase TTK (Homo sapiens) (UniProt P33981).
Output: 12.9

Task: Recall the reported inhibition of `COc1cccc(-n2ncc3c(N/N=C/c4cccc(F)c4)ncnc32)c1` when tested on Dual specificity protein kinase TTK (Homo sapiens) (UniProt P33981).
Output: 10.5

Task: Recall the reported inhibition of `COC(=O)Nc1nc2cc(Oc3cccc(NC(=O)Nc4cc(C(F)(F)F)ccc4F)c3)ccc2[nH]1` when tested on Dual specificity protein kinase TTK (Homo sapiens) (UniProt P33981).
Output: 0.75

Task: Recall the reported inhibition of `Cc1ccc(NC(=O)c2ccnc(N3CCCC3)c2)cc1-c1ccc(C(=O)NCC2CC2)cc1` when tested on Dual specificity protein kinase TTK (Homo sapiens) (UniProt P33981).
Output: 16.9

Task: Recall the reported inhibition of `CCc1cccc(NC(=O)Nc2ccc(Oc3ccc4nc(NC(=O)OC)[nH]c4c3)cc2)c1` when tested on Dual specificity protein kinase TTK (Homo sapiens) (UniProt P33981).
Output: 6.45

Task: Recall the reported inhibition of `Nc1ncnc2occ(-c3ccc(NC(=O)Nc4cccc(C(F)(F)F)c4)cc3)c12` when tested on Dual specificity protein kinase TTK (Homo sapiens) (UniProt P33981).
Output: 18.1

Task: Recall the reported inhibition of `NS(=O)(=O)c1cccc(-c2ccc3c(NC(=O)C4CC4)n[nH]c3c2)c1` when tested on Dual specificity protein kinase TTK (Homo sapiens) (UniProt P33981).
Output: 2.12

Task: Recall the reported inhibition of `COc1cc2c(cc1Nc1nc(N3CCc4ccccc43)c3cc[nH]c3n1)N(C(=O)CN(C)C)CC2` when tested on Dual specificity protein kinase TTK (Homo sapiens) (UniProt P33981).
Output: 25.1

Task: Recall the reported inhibition of `O=C1NC(=O)C(c2cccc(Cl)c2)=C1Nc1ccc(O)c(Cl)c1` when tested on Dual specificity protein kinase TTK (Homo sapiens) (UniProt P33981).
Output: 4.84

Task: Recall the reported inhibition of `CCn1c(-c2nonc2N)nc2c(C#CC(C)(C)O)nc(OC[C@@H](N)c3ccccc3)cc21` when tested on Dual specificity protein kinase TTK (Homo sapiens) (UniProt P33981).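 Note: reported figures are mean TTK inhibition at 1 µM.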
Output: 1.66
